Consider the following binders and their measured MFI readings.
Target: T1, mouse SEMA4D, full length, on CHO-K1 cells (CHO-K1 mSEMA4D) (mouse, UniProt O09126 24-861)
T1 construct: whole, on cells; also called murine SEMA4D recombinant cells
T1 sequence (looked up): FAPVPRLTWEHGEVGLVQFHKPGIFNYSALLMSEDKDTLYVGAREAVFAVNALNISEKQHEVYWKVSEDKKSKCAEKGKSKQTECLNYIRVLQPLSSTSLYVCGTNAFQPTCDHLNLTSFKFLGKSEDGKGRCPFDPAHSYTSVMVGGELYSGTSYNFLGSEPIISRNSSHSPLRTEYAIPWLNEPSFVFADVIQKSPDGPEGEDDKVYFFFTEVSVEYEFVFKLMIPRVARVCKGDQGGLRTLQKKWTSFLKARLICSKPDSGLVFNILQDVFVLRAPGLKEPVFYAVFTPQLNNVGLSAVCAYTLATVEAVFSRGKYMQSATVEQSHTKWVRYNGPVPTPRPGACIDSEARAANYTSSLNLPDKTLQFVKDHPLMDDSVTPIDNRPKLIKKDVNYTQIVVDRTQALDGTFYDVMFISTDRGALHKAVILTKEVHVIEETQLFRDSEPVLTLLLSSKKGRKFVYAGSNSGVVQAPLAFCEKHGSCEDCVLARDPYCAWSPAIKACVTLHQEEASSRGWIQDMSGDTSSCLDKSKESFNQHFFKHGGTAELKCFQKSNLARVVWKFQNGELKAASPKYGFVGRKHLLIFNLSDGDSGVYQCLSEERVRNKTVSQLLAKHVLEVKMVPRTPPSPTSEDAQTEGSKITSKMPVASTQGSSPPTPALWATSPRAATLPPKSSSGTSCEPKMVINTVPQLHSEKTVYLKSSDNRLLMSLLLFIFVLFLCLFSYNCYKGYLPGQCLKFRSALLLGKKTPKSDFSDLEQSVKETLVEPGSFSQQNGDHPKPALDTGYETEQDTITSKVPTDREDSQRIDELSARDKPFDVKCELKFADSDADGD
Assay: FACS, CHO-K1 mSEMA4D cells; Ab 0.0213 nM

The examples below pair each entry with its known result.
binder="37F11F9 (antibody, V domains shown, Mouse monoclonal antibody purified from hybridoma supernatant on protein A) VH: EVQLQQSGPVLVKPGASVKMSCKASGYTFTDYYMNWVKQSHGKSLEWIGLINPYSGGSTFNQKFKAKATLTVDKSSSSAYMDLNSLTSEDSAVYYCARVGDGYYGVTHGMDYWGQGTSVTVSS VL: DIVMTPSQKFMSTTVGDRVSITCKASQNVGTAVAWYQQKPGQSPTILIYSASNRYTGVPDRFTGSGSGTDFTLTISNMKSEDLADYFCQQYYIYPFTFAAGTKLELK" observed_property=MFI result=30.5
binder="42B7G2 (antibody, V domains shown, Mouse monoclonal antibody purified from hybridoma supernatant on protein A) VH: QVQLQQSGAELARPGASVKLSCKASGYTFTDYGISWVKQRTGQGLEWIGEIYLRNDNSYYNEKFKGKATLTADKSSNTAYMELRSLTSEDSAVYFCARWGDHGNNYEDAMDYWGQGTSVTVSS VL: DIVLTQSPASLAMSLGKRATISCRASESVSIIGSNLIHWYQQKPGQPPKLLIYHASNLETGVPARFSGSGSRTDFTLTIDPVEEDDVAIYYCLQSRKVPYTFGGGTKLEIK" observed_property=MFI result=31.6

# ---- query binder ----
Req: # input binder: 32C8F10 (antibody, V domains shown, Mouse monoclonal antibody purified from hybridoma supernatant on protein A) VH: EVQLQQSGAELVRPGASVKLSCTASGFNIKDEYIHWVKQRPEQGLEWIGWIDPANGHTEYASRFQAKATITADTSSNTAYLQLSSLTSEDTAVYYCTTGDYDGFAYWGQGTLVTVST VL: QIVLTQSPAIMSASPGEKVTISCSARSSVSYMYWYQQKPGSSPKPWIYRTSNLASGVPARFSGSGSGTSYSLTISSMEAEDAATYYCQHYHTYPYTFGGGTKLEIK ; wanted: its MFI
Resp: 29.5
